- System: 817829-284-R-J1-PDC complex spheroids, viability
- Assay Procedure: Anticancer human tumor 817829-284-R-J1-PDC patient-derived colon adenocarcinoma cell line growth inhibition [CLK]; active = viability on the fitted dose curve at most 10% of control; inactive = the rest
- Condition Description: second compound 0.316 µM; first compound 3.16 µM
The reply should name one outcome from active, inactive

// outcome(item) with item = Nc1ccn(C2OC(CO)C(O)C2(F)F)c(=O)n1 (stereo not given) + CN1CCN(c2cc(C(=O)Nc3cc4cc(-c5cnn(C)c5)ccc4cn3)ccn2)CC1
active

Similarly, COc1ccc([C@@H](O)c2cc(-c3ncnc4cc(N5CCOCC5)ccc34)c(F)cc2Cl)nn1 + CN1CCN(c2cc(C(=O)Nc3cc4cc(-c5cnn(C)c5)ccc4cn3)ccn2)CC1 ?
active

Similarly, CC1(C)CCC(CN2CCN(c3ccc(C(=O)NS(=O)(=O)c4ccc(NCC5CCOCC5)c([N+](=O)[O-])c4)c(Oc4cnc5[nH]ccc5c4)c3)CC2)=C(c2ccc(Cl)cc2)C1 + CN1CCN(c2cc(C(=O)Nc3cc4cc(-c5cnn(C)c5)ccc4cn3)ccn2)CC1 ?
active

Similarly, CCCS(=O)(=O)Nc1ccc(F)c(C(=O)c2c[nH]c3ncc(-c4ccc(Cl)cc4)cc23)c1F + CNC(=O)c1ccc(Nc2nc(OC3CCCC3)c3c(-c4ccc5nc(C)oc5c4)c[nH]c3n2)c(OC)c1 ?
inactive

Similarly, CC(Nc1ccc2c(c1)OCCn1cc(N3C(=O)OCC3C(F)F)nc1-2)C(N)=O (stereo not given) + CN1CCN(c2cc(C(=O)Nc3cc4cc(-c5cnn(C)c5)ccc4cn3)ccn2)CC1 ?
active

---

I'd be grateful if you could share measured viability, T/C for these entries.
- System: 817829-284-R-J1-PDC complex spheroids, viability
- Assay Procedure: Anticancer human tumor 817829-284-R-J1-PDC cell line growth inhibition [CLK];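 note: spheroids exposed to the agents for seven days before readout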
- Condition Description: second compound 10 µM; first compound 0.316 µM; active compounds read low
Give the value in % but do not write % after it.

Which value of viability, T/C has been reported for C=CC(=O)N1CCN(c2nc(=O)n(-c3c(C)ccnc3C(C)C)c3nc(-c4c(O)cccc4F)c(F)cc23)C(C)C1 (stereo not drawn) + CNC(=O)c1ccc(Nc2nc(OC3CCCC3)c3c(-c4ccc5nc(C)oc5c4)c[nH]c3n2)c(OC)c1 in the records?
22

Similarly, COc1c(OCCCN2CCOCC2)ccc2c3n(c(=NC(=O)c4cnc(N)nc4)nc12)CCN3 + CN1CCN(c2cc(C(=O)Nc3cc4cc(-c5cnn(C)c5)ccc4cn3)ccn2)CC1 ?
0.13

Similarly, O=c1[nH]cc(F)c(=O)[nH]1 + CN1CCN(c2cc(C(=O)Nc3cc4cc(-c5cnn(C)c5)ccc4cn3)ccn2)CC1 ?
0.1

---

- Test system: 817829-284-R-J1-PDC complex spheroids, viability
- Assay Procedure: Anticancer human tumor 817829-284-R-J1-PDC cell line growth inhibition [CLK]; active = viability on the fitted dose curve at most 10% of control; inactive = the rest;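 note: spheroids exposed to the agents for seven days before readout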
- Condition Description: second compound 3.16 µM; first compound 1 µM
The reply should name one outcome from active, inactive

// outcome(item) with item = COc1c(OCCCN2CCOCC2)ccc2c3n(c(=NC(=O)c4cnc(N)nc4)nc12)CCN3 + CN1CCN(c2cc(C(=O)Nc3cc4cc(-c5cnn(C)c5)ccc4cn3)ccn2)CC1
active

Similarly, COC1C=CCC(C)C(C)S(=O)(=O)NC(=O)c2ccc3c(c2)N(CC2CCC21)CC1(CCCc2cc(Cl)ccc21)CO3 (stereo not given) + CNC(=O)c1ccc(Nc2nc(OC3CCCC3)c3c(-c4ccc5nc(C)oc5c4)c[nH]c3n2)c(OC)c1 ?
inactive

Similarly, CC(CO)NC(=O)c1cc(-c2ccc(Cl)cc2)nn(-c2cnn(C)c2)c1=O (stereo not given) + CNC(=O)c1ccc(Nc2nc(OC3CCCC3)c3c(-c4ccc5nc(C)oc5c4)c[nH]c3n2)c(OC)c1 ?
inactive

Similarly, CCc1c2c(nc3ccc(O)cc13)-c1cc3c(c(=O)n1C2)COC(=O)[C@]3(O)CC + CNC(=O)c1ccc(Nc2nc(OC3CCCC3)c3c(-c4ccc5nc(C)oc5c4)c[nH]c3n2)c(OC)c1 ?
active

Similarly, O=c1[nH]cc(F)c(=O)[nH]1 + CNC(=O)c1ccc(Nc2nc(OC3CCCC3)c3c(-c4ccc5nc(C)oc5c4)c[nH]c3n2)c(OC)c1 ?
inactive
